- Organism: Rattus norvegicus
- test.name: Free drug level in rat
- Assay type: ADME, organism-based
- experimental.parameters: in vivo
quantity.name: Drug uptake(free) (%)

# count of solved cases: 4
CNc1cccc(CCOc2ccc(C[C@H](NC(=O)c3c(F)cccc3Cl)C(=O)O)cc2)n1; 0.5
CNc1cccc(CCOc2ccc(C[C@H](NC(=O)c3c(C)noc3C)C(=O)O)cc2)n1; 3.8
CNc1cccc(CCOc2ccc(C[C@H](NC(=O)c3sccc3Cl)C(=O)O)cc2)n1; 0.2
CNc1cccc(CCOc2ccc(C[C@H](NC(=O)C3(C)CCCCC3)C(=O)O)cc2)n1; 0.9

(P) CNc1cccc(CCOc2ccc(C[C@H](NC(=O)c3c(Cl)cncc3Cl)C(=O)O)cc2)n1
(Q) CNc1cccc(CCOc2ccc(C[C@H](NC(=O)c3ccc(F)cc3C3CC3)C(=O)O)cc2)n1
**Q:** Identify the item whose Drug uptake(free) is the smaller number: P or Q Which one? Tell me its label.
**A:** Q
(Q: 0.4%, P: 3.3%)

###

- assay.system: Integrin alpha-5/beta-1 (Homo sapiens, UniProt P05556+P08648)
- Sequence (P05556 21-798 limits assumed): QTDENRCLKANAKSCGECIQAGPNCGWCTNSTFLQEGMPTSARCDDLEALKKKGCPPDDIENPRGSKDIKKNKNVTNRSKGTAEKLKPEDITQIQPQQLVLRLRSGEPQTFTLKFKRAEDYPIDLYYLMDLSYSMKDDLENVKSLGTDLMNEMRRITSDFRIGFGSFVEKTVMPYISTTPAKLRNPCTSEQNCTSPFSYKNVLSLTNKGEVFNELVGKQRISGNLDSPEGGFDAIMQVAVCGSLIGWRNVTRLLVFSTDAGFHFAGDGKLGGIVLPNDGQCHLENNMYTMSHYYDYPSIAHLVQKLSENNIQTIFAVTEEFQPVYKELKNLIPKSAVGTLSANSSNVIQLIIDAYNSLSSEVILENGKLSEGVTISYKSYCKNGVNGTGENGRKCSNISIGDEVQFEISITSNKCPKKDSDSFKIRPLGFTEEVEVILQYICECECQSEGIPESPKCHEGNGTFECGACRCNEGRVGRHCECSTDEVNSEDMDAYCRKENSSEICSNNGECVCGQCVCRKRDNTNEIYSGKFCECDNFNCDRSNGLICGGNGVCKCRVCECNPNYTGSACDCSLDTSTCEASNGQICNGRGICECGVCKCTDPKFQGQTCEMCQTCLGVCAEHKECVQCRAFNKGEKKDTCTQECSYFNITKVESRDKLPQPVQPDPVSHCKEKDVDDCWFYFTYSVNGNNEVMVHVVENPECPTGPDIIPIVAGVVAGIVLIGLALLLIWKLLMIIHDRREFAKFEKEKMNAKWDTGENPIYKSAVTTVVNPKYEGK
- Sequence (P08648 42-894 limits assumed): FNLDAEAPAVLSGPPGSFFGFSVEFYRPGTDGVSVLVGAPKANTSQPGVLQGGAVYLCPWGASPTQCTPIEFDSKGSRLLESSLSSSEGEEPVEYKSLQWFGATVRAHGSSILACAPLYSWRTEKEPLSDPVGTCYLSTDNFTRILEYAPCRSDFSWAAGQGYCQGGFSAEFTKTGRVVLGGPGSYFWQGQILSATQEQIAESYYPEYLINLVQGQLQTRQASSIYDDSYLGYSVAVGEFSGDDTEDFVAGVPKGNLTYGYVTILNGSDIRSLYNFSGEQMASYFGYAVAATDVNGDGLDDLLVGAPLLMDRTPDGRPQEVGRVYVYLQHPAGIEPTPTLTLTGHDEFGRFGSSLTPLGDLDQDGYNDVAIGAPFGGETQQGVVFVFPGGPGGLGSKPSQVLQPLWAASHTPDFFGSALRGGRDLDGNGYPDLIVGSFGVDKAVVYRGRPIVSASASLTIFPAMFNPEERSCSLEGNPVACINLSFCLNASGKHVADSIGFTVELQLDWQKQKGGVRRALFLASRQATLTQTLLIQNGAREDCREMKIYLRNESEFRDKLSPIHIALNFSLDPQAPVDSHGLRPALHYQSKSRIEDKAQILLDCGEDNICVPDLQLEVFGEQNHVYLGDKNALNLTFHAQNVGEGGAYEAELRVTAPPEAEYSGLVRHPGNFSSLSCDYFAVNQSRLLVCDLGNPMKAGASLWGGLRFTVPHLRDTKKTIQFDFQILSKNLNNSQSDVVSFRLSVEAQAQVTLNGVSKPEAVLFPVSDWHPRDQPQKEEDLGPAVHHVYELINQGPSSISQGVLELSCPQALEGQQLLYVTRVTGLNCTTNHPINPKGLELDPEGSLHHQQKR
- Sequence (P08648 895-1049 limits assumed): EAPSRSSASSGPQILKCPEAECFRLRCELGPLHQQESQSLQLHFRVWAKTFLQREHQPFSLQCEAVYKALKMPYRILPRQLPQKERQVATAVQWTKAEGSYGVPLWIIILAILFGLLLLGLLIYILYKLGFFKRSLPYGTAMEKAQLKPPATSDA
- test.name: Antagonist activity at integrin alpha5beta1 in human A375M cells assessed as inhibition of cell adhesion in presence of Mg2+ and MK-0429
- Format: functional, cell-based
quantity.name: IC50 (nM)

# count of solved cases: 3
CNc1cccc(CCOc2ccc(C[C@H](NC(=O)c3c(C)cccc3C)C(=O)O)cc2)n1; 90
CNc1cccc(CCOc2c(C)cc(C[C@H](NC(=O)c3c(Cl)cccc3Cl)C(=O)O)cc2C)n1; 5800
CNc1cccc(CCOc2ccc(C[C@H](NC(=O)c3ccccc3Cl)C(=O)O)cc2)n1; 240

(a) CNc1cccc(CCOc2ccc(C[C@H](NC(=O)c3ccc(F)cc3C)C(=O)O)cc2)n1
(b) CNc1cccc(CCOc2ccc(C[C@H](NC(=O)c3c(Cl)cccc3Cl)C(=O)O)cc2C)n1
**Q:** Identify the item whose IC50 is the smaller number: a or b Which one? Tell me its label.
**A:** b

###

- Species: Homo sapiens
- test.name: Free drug level in human
- Format: ADME, organism-based
- experimental.parameters: in vivo
quantity.name: Drug uptake(free) (%)

# count of solved cases: 5
CNc1cccc(CCOc2ccc(C[C@H](NC(=O)c3c(Cl)cncc3Cl)C(=O)O)cc2)n1; 2.4
CNc1cccc(CCOc2ccc(C[C@H](NC(=O)c3c(Cl)cccc3Cl)C(=O)O)cc2)n1; 1
CNc1cccc(CCOc2ccc(C[C@H](NC(=O)C3(C)CCCCC3)C(=O)O)cc2)n1; 0.25
CNc1cccc(CCOc2ccc(C[C@H](NC(=O)c3ccccc3Cl)C(=O)O)cc2)n1; 0.4
CNc1cccc(CCOc2ccc(C[C@H](NC(=O)c3sccc3Cl)C(=O)O)cc2)n1; 0.1

(a) CNc1cccc(CCOc2ccc(C[C@H](NC(=O)c3c(F)cccc3Cl)C(=O)O)cc2)n1
(b) CNc1cccc(CCOc2ccc(C[C@H](NC(=O)c3ccc(F)cc3Cl)C(=O)O)cc2)n1
**Q:** Identify the item whose Drug uptake(free) is the smaller number: a or b Which one? Tell me its label.
**A:** b

###

- assay.system: Integrin alpha-5/beta-1 (Homo sapiens, UniProt P05556+P08648)
- test.name: Antagonist activity at integrin alpha5beta1 in human K562 cells assessed as inhibition of cell adhesion in presence of human serum albumin
- Assay type: functional, cell-based
pIC50: −log10 of the molar value.
quantity.name: pIC50

# count of solved cases: 6
CNc1cccc(CCOc2ccc(C[C@H](NC(=O)C3CCCCC3C)C(=O)O)cc2)n1 (some centres undefined); 4.54
CNc1cccc(CCOc2ccc(C[C@H](NC(=O)c3c(C)cc(C)cc3C)C(=O)O)cc2)n1; 5.82
CNc1cccc(CCOc2ccc(C[C@H](NC(=O)C3(C)CCCCC3)C(=O)O)cc2)n1; 5.12
CNc1cccc(CCOc2ccc(C[C@H](NC(=O)c3c(F)cccc3Cl)C(=O)O)cc2)n1; 5.82
CNc1cccc(CCOc2ccc(C[C@H](NC(=O)c3sccc3Cl)C(=O)O)cc2)n1; 4.44
CNc1cccc(CCOc2ccc(C[C@H](NC(=O)c3c(Cl)cccc3Cl)C(=O)O)cc2)n1; 6.77

(A) CCc1cc(F)ccc1C(=O)N[C@@H](Cc1ccc(OCCc2cccc(NC)n2)cc1)C(=O)O
(B) CNc1cccc(CCOc2ccc(C[C@H](NC(=O)c3c(C)cccc3C)C(=O)O)cc2)n1
**Q:** Identify the entry with the larger pIC50. Options: A and B Which one? Tell me its label.
**A:** B
